Listed below: binding signal values for each entry.
- TARGET_UNDER_TEST: OsSMF1 (Oryza sativa, UniProt Q6ZLB0 1-436)
- Sequence: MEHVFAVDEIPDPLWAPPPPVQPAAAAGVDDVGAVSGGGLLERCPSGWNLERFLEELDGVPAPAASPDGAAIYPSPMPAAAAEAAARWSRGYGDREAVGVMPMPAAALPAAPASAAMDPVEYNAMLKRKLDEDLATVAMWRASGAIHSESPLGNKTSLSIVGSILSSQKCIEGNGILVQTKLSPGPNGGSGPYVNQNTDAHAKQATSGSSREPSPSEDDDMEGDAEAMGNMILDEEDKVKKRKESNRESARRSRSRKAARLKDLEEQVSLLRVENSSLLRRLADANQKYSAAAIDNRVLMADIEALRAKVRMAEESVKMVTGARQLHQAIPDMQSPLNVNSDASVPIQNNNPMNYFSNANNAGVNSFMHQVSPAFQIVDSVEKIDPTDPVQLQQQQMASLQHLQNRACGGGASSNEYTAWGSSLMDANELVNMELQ
- ASSAY_INFO: protein-binding microarray (RPBM); PBS, 2% BSA, 51.3 ng/ul salmon testes DNA, 50 uM zinc acetate, 200 nM TF, 25 C, 1 h; high values mean tight binding
- ASSAY_SETUP: protein: recombinant; tags: N-terminal polyhistidine and DsRed monomer fusion (pET32a); chain copies: 2; label: CyDye5-dUTP incorporated in the synthesized complementary strand; 3' TTTTT single-stranded linker to array surface; dsDNA, one strand shown
Over roughly 39,000 sequences, “fluorescence intensity (a.u.)” has its median near 4,300; the highest 2% begin near 39,000. Shown is part of a subset that was picked to be rich in the highest values.

Example sequences with recorded binding signal:
> print(dat)
                                biosequence                               result
1  CGAGGTTGCCCCTCCCCTCTCCTACGTGGTCGTGCCCCAACGGAGTCACCTAGTGCAG   5410 fluorescence intensity (a.u.)
2  AAGTCCTCCCACAAGTCAACCAACCAAAACCACGTCCAAACGGAGTCACCTAGTGCAG   3420 fluorescence intensity (a.u.)
3  CCTGAGGAGGGAAGGGTCGATGTGGAGGAGCGGCGGCGACCGGAGTCACCTAGTGCAG   3500 fluorescence intensity (a.u.)
4  AGGGATTATGTGTGTGTAAGATATTTGTGACTAGTTTATTCGGAGTCACCTAGTGCAG   3630 fluorescence intensity (a.u.)
5  GGAGTGGCGGGGTTGCGGCATTGGGAGCTGACGTGGCCGCCGGAGTCACCTAGTGCAG  25400 fluorescence intensity (a.u.)

query: Query (sequence): ATGTTTCTGCGGCCCGTCATCCGTGTTTGAGTCGGTTATACGGAGTCACCTAGTGCAG ; field requested: binding signal
result: 4220 fluorescence intensity (a.u.)

query: Query (sequence): TTCGTGGCGGCTCCTCCTGTGCCATGGCCGCCGATGGTGACGGAGTCACCTAGTGCAG ; field requested: binding signal
result: 3320 fluorescence intensity (a.u.)

query: Query (sequence): GACCCTGCCGCCCTCCATTTGGGCGGCAAGCTGACGTGGCCGGAGTCACCTAGTGCAG ; field requested: binding signal
result: 32700 fluorescence intensity (a.u.)

query: Query (sequence): CGCGCTGTCTGCACCGCCGCCGCCGCCGCCGGCGGAACCCCGGAGTCACCTAGTGCAG ; field requested: binding signal
result: 25200 fluorescence intensity (a.u.)

query: Query (sequence): GATGCAAAGAGAGCTACTAGCTGAGTTGGATGGAATTAACCGGAGTCACCTAGTGCAG ; field requested: binding signal
result: 5550 fluorescence intensity (a.u.)

query: Query (sequence): AAATATAGAGATTTATTAACATAACAGCCTATCCACGTGGCGGAGTCACCTAGTGCAG ; field requested: binding signal
result: 17200 fluorescence intensity (a.u.)

query: Query (sequence): CGGCAGCCACCTCCCCACTCCATCCTCTCGTCCCCTTTTACGGAGTCACCTAGTGCAG ; field requested: binding signal
result: 3870 fluorescence intensity (a.u.)
